Read-out: Interleukin-1 alpha (IL1a), IL1A (gene 3552)
Assay: BSK_BE3C_IL1a: BioMAP Diversity Plus: BE3C Assay for Interleukin-1 alpha (IL1a) Biomarker Activity (AID 2283016)
Conditions: primary human bronchial epithelial cells; actives raise or lower the signal
Calls of active or inactive are those of the source. Rule for the calls: active = hit-call score of the fitted dose curve at least 0.9, where 1 is the maximum; inactive = score below 0.9.
Measured Property: AC50

[
  {
    "Molecule": "Nc1ccc(Nc2ccccc2)cc1",
    "AC50": "inactive"
  },
  {
    "Molecule": "COC(=O)c1ccccc1O",
    "AC50": "inactive"
  },
  {
    "Molecule": "CC[C@H]1OC(=O)[C@H](C)[C@@H](O[C@H]2C[C@@](C)(OC)[C@@H](O)[C@H](C)O2)[C@H](C)[C@@H](O[C@@H]2O[C@H](C)C[C@H](N(C)C)[C@H]2O)[C@](C)(O)C[C@@H](C)C(=O)[C@H](C)[C@@H](O)[C@]1(C)O",
    "AC50": "inactive"
  },
  {
    "Molecule": "CCOCCOCCOCCO",
    "AC50": "inactive"
  },
  {
    "Molecule": "O=C(O)c1cccc(Oc2ccccc2)c1",
    "AC50": "inactive"
  },
  {
    "Molecule": "Nc1cccc(N)c1",
    "AC50": "inactive"
  },
  {
    "Molecule": "NC(=O)NO",
    "AC50": "inactive"
  },
  {
    "Molecule": "O=C(CCCCCCCCc1cccnc1)N1CCC(C=C(c2ccccc2)c2ccccc2)CC1",
    "AC50": "27.3 µM (active)"
  }
]

Lookup: Look up AC50: On1ccccc1=S
Found: 4.99 µM (active)

Lookup: Moving on to O=c1[nH]c2ccc(S(=O)CCN3CCC(Cc4ccc(F)cc4)CC3)cc2o1 (centres undefined)
Found: inactive

Lookup: Now the same for Cc1ccc(O)cc1
Found: inactive

Lookup: Input CC1=CC(=O)CC(C)(C)C1
Found: inactive

Lookup: Thanks! And O=C(O)CCN(C1(C(=O)NO)CCCC1)S(=O)(=O)c1ccc(Oc2ccc(F)cc2)cc1 ?
Found: inactive

Lookup: Similarly, CC(C)=CCC/C(C)=C\CO ?
Found: inactive

Values compiled from PubChem BioAssay (EPA / NIEHS).
